system: mouse immortalized TT-D6 Scx-luciferase (ScxL) cell line; transcriptional activation of Scleraxis (Scx) gene; assay: SCX-LUC in vitro assay (scleraxis promoter luciferase reporter); type: cell-based; details: Mus musculus, 96 h; Examples table; TT-D6 Scx-luciferase cells, 1 ng/ml TGFβ1, four days; read-out: Scx-Luc (EC50 μM)
Quick rule for you: EC50 under 1 µM gets True, anything else gets False.

>>> label("Nc1n[nH]c2ccc(-c3ccc(NS(=O)(=O)c4ccc(F)cc4)cc3Cl)nc12 [Example 6]")
"True"
>>> label("Nc1n[nH]c2ccc(-c3ccc(NS(=O)(=O)[C@H]4CCCC[C@H]4O)cc3Cl)nc12 [Example 14]")
"False"
>>> label("Nc1n[nH]c2ccc(-c3ccc(NS(=O)(=O)c4ccc(F)c(Cl)c4)cc3Cl)nc12 [Example 27]")
"False"
>>> label("Nc1n[nH]c2ccc(-c3ccc(NS(=O)(=O)[C@@H]4CCCC[C@@H]4O)cc3Cl)nc12 [Example 60]")
"False"
>>> label("Nc1n[nH]c2ccc(-c3ccc(NS(=O)(=O)C4CCCCC4)cc3Cl)nc12 [Example 15]")
"True"
>>> label("CC(=O)N1CCOc2ccc(S(=O)(=O)Nc3ccc(-c4ccc5[nH]nc(N)c5n4)c(Cl)c3)cc21 [Example 86]")
"False"
>>> label("Nc1n[nH]c2ccc(-c3ccc(S(=O)(=O)N4CC[C@H](O)C4)cc3Cl)nc12 [Example 71]")
"False"
>>> label("Cc1cc(S(=O)(=O)N2CC(O)(C(F)(F)F)C2)ccc1-c1ccc2[nH]nc(N)c2n1 [Example 66]")
"True"
>>> label("Nc1n[nH]c2ccc(-c3ccc(NS(=O)(=O)c4cccc(Cl)c4)cc3Cl)nc12 [Example 28]")
"False"

For the next question, use this molecule.
Input line: Please let me know if Nc1n[nH]c2ccc(-c3ccc(NS(=O)(=O)C4CCCCC4O)cc3Cl)nc12 (stereo not shown) [Example 17] shows EC50 below 1 µM.
Output line: False

Every entry's value here was drawn from patent US10766894B2.
